B1: FAM116A (parent)
chain: TVHEVDIFRCFCPVFLHSQMLWEL

- Variants of: B1
- test-description: protein stability index of a GFP-peptide fusion (GPS, HEK-293T) (PSI 1-6); higher = more stable;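 also: lentivirally expressed fusions sorted by FACS into six bins by GFP to DsRed ratio, PSI derived from sequencing read proportions per bin multiplied by bin number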
- condition-summary: c terminus: a fixed tail appended
Would you mind labelling by protein stability index? At or over 3 is Criterion met, under is Criterion not met.

Reference set (10 entries):
variant_notation=L24Q class="Criterion not met"
variant_notation=V5W class="Criterion not met"
variant_notation=V14A class="Criterion not met"
variant_notation=R9P class="Criterion not met"
variant_notation=V5S class="Criterion not met"
variant_notation=F15R class="Criterion met"
variant_notation=V14Q class="Criterion met"
variant_notation=C10P class="Criterion met"
variant_notation=E23K class="Criterion met"
variant_notation=C12K class="Criterion not met"

In plain terms: is recorded protein stability index at least 3 for S18Y ?
Criterion met

In plain terms: is recorded protein stability index at least 3 for S18Q ?
Criterion not met

In plain terms: is recorded protein stability index at least 3 for E4P ?
Criterion met

In plain terms: is recorded protein stability index at least 3 for V2W ?
Criterion not met

In plain terms: is recorded protein stability index at least 3 for F8A ?
Criterion not met

In plain terms: is recorded protein stability index at least 3 for H3D ?
Criterion not met

In plain terms: is recorded protein stability index at least 3 for C12E ?
Criterion not met

In plain terms: is recorded protein stability index at least 3 for L24G ?
Criterion met

In plain terms: is recorded protein stability index at least 3 for E4S ?
Criterion met

In plain terms: is recorded protein stability index at least 3 for L21T ?
Criterion met

In plain terms: is recorded protein stability index at least 3 for F8V ?
Criterion not met

In plain terms: is recorded protein stability index at least 3 for P13Y ?
Criterion not met

In plain terms: is recorded protein stability index at least 3 for T1G ?
Criterion not met

In plain terms: is recorded protein stability index at least 3 for E23I ?
Criterion met

In plain terms: is recorded protein stability index at least 3 for H3L ?
Criterion not met

In plain terms: is recorded protein stability index at least 3 for F15C ?
Criterion not met

In plain terms: is recorded protein stability index at least 3 for R9Q ?
Criterion met

In plain terms: is recorded protein stability index at least 3 for V2N ?
Criterion not met

In plain terms: is recorded protein stability index at least 3 for H3W ?
Criterion met

In plain terms: is recorded protein stability index at least 3 for Q19I ?
Criterion not met

In plain terms: is recorded protein stability index at least 3 for E4C ?
Criterion not met

In plain terms: is recorded protein stability index at least 3 for V2K ?
Criterion not met

In plain terms: is recorded protein stability index at least 3 for E23H ?
Criterion met

In plain terms: is recorded protein stability index at least 3 for S18T ?
Criterion met
